Molecular target: HLA-A*32:01
Assay: IEDB peptide-MHC binding, purified MHC/competitive/radioactivity; filed as Kd, often an IC50 or EC50 that approximates it; bounds were set here for any values at or beyond the usual limits of such assays
Conditions: source organism: Dengue virus 2 Peru/IQT2913/1996
Listing of recorded Kd by entry.

| query_sequence | Kd [µM] |
| --- | --- |
| ATYEPDVDL | 7.39 |
| GLFPVSIPI | 0.00647 |

###

Biological target: HLA-A*02:03
Assay: IEDB peptide-MHC binding, purified MHC/competitive/radioactivity; filed as Kd, often an IC50 or EC50 that approximates it; bounds were set here for any values at or beyond the usual limits of such assays
Settings: source organism: Vaccinia virus WR
Label true (1) when Kd is strictly below 1000 nM; otherwise label false (0).

| query_sequence | class_assignment |
| --- | --- |
| IVCSKTVKNV | true (1) |
| IMRVMANNV | false (0) |
| GLCNYGGILI | false (0) |
| RVKQWVMDTL | true (1) |
| KLFTHDIML | true (1) |
| CAVIPFDDIV | false (0) |
| VQLSNNKYV | true (1) |
| PLTLLIKTL | false (0) |
| CLTVPNITI | true (1) |
| SVQLSNNKYV | true (1) |
| NLRCHSAHV | true (1) |

###

Biological target: HLA-A*02:06
Assay: IEDB peptide-MHC binding, purified MHC/competitive/radioactivity; filed as Kd, often an IC50 or EC50 that approximates it; bounds were set here for any values at or beyond the usual limits of such assays
Details: source organism: Lassa virus Josiah

| query_sequence | target_or_system | Kd (nM) |
| --- | --- | --- |
| CNYSKYWYL | HLA-A*02:06 | 2700 |

###

Target: HLA-B*18:01
Assay: IEDB peptide-MHC binding, purified MHC/competitive/radioactivity; filed as Kd, often an IC50 or EC50 that approximates it; bounds were set here for any values at or beyond the usual limits of such assays
Details: source organism: Mammarenavirus lassaense
pKd: −log10 of the molar value.
Listing of recorded pKd by entry.
measured_endpoint: pKd

| query_sequence | measured_endpoint | censoring_qualifier | value_reported |
| --- | --- | --- | --- |
| YDFNKLTAL | pKd | = | 5.17 |
| FDAAASGGL | pKd | ≤ | 4.19 |
| FESYVRPFVA | pKd | = | 6.01 |
| GDVELLGTT | pKd | ≤ | 4.11 |
| SEAQMSIQL | pKd | = | 5.96 |

###

Molecular target: HLA-A*68:02
Experiment: IEDB peptide-MHC binding, purified MHC/direct/fluorescence; filed as Kd, often an IC50 or EC50 that approximates it; bounds were set here for any values at or beyond the usual limits of such assays
Details: source organism: Listeria monocytogenes serotype 4b str. H7858

| query_sequence | Kd |
| --- | --- |
| ERYPGGVSL | ≥ 20 µM |

###

Target: HLA-B*35:01
Test: IEDB peptide-MHC binding, purified MHC/direct/fluorescence; filed as Kd, often an IC50 or EC50 that approximates it; bounds were set here for any values at or beyond the usual limits of such assays
Settings: source organism: Giardia intestinalis

| query_sequence | Kd, nM |
| --- | --- |
| DYAMHGTVF | 62.1 |
